Record form. Attribute: TGI. Fill in for each entry.
Test system: HCT-116 colon
Experiment: NCI tumour cell line growth inhibition, 48 h

{"compound": "CCCCCCCCCCCCCCCCCC(=O)Nc1ccn(C2OC(CO)C(O)C2O)c(=O)n1 (stereo unspecified)", "TGI": "> 100 µM"}
{"compound": "CC(C)=CC(=O)Cc1nc2ccc([N+](=O)[O-])cc2[nH]c1=O", "TGI": "> 100 µM"}

I'm hoping you can list TGI for every compound here, please.
1. CCCCCCCCCCCCCCCC1=NC(C)(C)CN1C(C)C
2. O=C(N/N=C/c1cc(Br)cc(Br)c1[O-])c1ccccc1O.O=C(N/N=C/c1cc(Br)cc(Br)c1[O-])c1ccccc1O.[Ni+2]
3. COC(=O)c1nn(C(=N)c2ccc(Cl)cc2)c2c1CCC2
4. C=C(C)CNC(=S)N(N)c1ccc2ccccc2c1
5. CCN(CC)CC(=N)N(CC)c1ccccc1
6. O=C(NC(=S)Nc1cc(Cl)ccc1O)c1cccc(Br)c1
7. O=C(CC/C(CC(=O)c1ccc(Br)cc1)=N\O)Nc1ccc(Cl)c(Cl)c1

Key:
["2.46 µM", "1.55 µM", "> 100 µM", "> 100 µM", "> 100 µM", "> 100 µM", "> 100 µM"]

Hi, could you look up TGI for each item in my list?
1. O=NN(CCCl)C(=O)NC1CCC(CC2CCC(NC(=O)N(CCCl)N=O)CC2)CC1 (stereo unspecified)
2. Cc1ccc(CCC(=O)C(=O)O)s1
3. COC(=O)C1=C(C(=O)OC)SC2(S1)C(C(=O)OC)=C(C(=O)OC)Sc1c2ssc1=NC(C)(C)C
4. CC(=O)OC1COC(Nc2nc(N)n(C)c(=O)c2N=O)C(OC(C)=O)C1OC(C)=O (stereo unspecified)
5. O=c1oc2c(C(F)(F)F)cccc2cc1-c1csc(Nc2ccc(OCCF)cc2)n1
6. CC(C)(C)c1ccc(NS(=O)(=O)c2ccc3nc(NC(=O)c4cnccn4)[nH]c3c2)cc1

Key:
1. > 100 µM
2. > 100 µM
3. 2.03 µM
4. > 10 µM
5. 0.54 µM
6. 19.2 µM

Below are some compounds; for each one, tell me its TGI.
1. O=[N+]([O-])C(Cl)=C/C(=C(\Cl)SCc1ccccc1)[N+](=O)[O-]
2. COc1ccc(-c2nn(-c3ccc(NC(=O)Nc4ccc(Cl)c(C(F)(F)F)c4)cc3)cc2-c2ccncc2)cc1Cl
3. [N-]=[N+]=Nc1c([N+](=O)[O-])c(=O)n2c3c(cccc13)CCC2
4. COc1ccc(Cn2cc3c(c2-c2cc(OC)c(OC)c(OC)c2)CCc2cnoc2-3)cc1

Key:
["44.1 µM", "2.69 µM", "30.2 µM", "> 100 µM"]

Hey, quick one: what's TGI for each of these?
1. CNc1ncnc2c1cnn2Cc1cn(COCC(O)CO)nn1 (stereo unspecified)
2. NC(N)=NCCCC(NC(=O)OCCCCn1ccc(N)nc1=O)C(=O)O (stereo unspecified)

Key:
["> 100 µM", "> 100 µM"]

* * *

What TGI was measured for each of the following?
System: SF-539 CNS
Experiment: NCI tumour cell line growth inhibition, 48 h
Give bare numbers, in µM.

// worked examples, TGI included
{"molecule": "O=C(NC(=O)c1ccccc1[N+](=O)[O-])Nc1ccc(Oc2ncc(Cl)cn2)c(C(F)(F)F)c1", "tested_on": "SF-539 CNS", "attribute_measured": "TGI", "reported": 0.489}
{"molecule": "Cc1cc(C(=O)c2ccccc2)c(C)c2c1[nH]c1ccc(Cl)cc12", "tested_on": "SF-539 CNS", "attribute_measured": "TGI", "reported": 0.799}
{"molecule": "COc1ccc(C(=O)/C=C/c2cc(O)c(O)cc2F)c(OC)c1", "tested_on": "SF-539 CNS", "attribute_measured": "TGI", "reported": 31}
{"molecule": "CCCCCCCCCCCCCCCC1=NC(C)(C)CN1C(C)C", "tested_on": "SF-539 CNS", "attribute_measured": "TGI", "reported": 2.98}
{"molecule": "COC(=O)C(C)NC(=O)c1ccccc1I(OS(=O)(=O)C(F)(F)F)c1ccccc1 (stereo not given)", "tested_on": "SF-539 CNS", "attribute_measured": "TGI", "reported": 45.6}

For every item in the list below, what is its measured TGI?
1. [N-]=[N+]=Nc1c([N+](=O)[O-])c(=O)n2c3c(cccc13)CCC2
2. O=[N+]([O-])C(Cl)=C/C(=C(\Cl)SCc1ccccc1)[N+](=O)[O-]
3. Cc1ccc([N+](=O)[O-])c2c(NCC(O)CO)ccnc12 (stereo not given)

Key:
1: 52.2; 2: 45; 3: 48.6

* * *

Tested on: EKVX NSCLC
Assay: NCI tumour cell line growth inhibition, 48 h
attribute_measured: TGI (µM)
Give bare numbers, in µM.

Recorded results for 4 molecules are shown here.
{"molecule": "O=C(O)C(=O)/C=C(\\O)c1ccc(Br)cc1", "TGI [µM]": 82.1}
{"molecule": "CC(=O)c1cc(O)c2ccccc2c1O", "TGI [µM]": 81.2}
{"molecule": "C=C1C(=O)OC2CC3(C)OC3CC/C(C)=C/C(OC(C)=O)C12 (configuration not stated)", "TGI [µM]": 32.7}
{"molecule": "Cc1ccc([C@]2(C)CC[C@H](C)/C2=C\\Br)c(O)c1", "TGI [µM]": 17.7}

Next up:
Exercise: Suppose we examine the molecule O=C1C(Cl)=C(Nc2cccc(O)c2)C(=O)N1Cc1ccc(Cl)cc1Cl ; what TGI value has been reported?
Key: 26.6

* * *

Test system: SF-268 CNS
Assay: NCI tumour cell line growth inhibition, 48 h; in the data active means GI50 below about 0.43 µM; inactive means the rest
Bench note: report the call from active, inactive

Completed entries (count: 3):
{"structure_smiles": "CC#Cc1nc(Nc2cc(C)[nH]n2)c2ccccc2n1", "discrete_label": "inactive"}
{"structure_smiles": "COc1ccc(-c2nn(-c3ccc(NC(=O)Nc4ccc(Cl)c(C(F)(F)F)c4)cc3)cc2-c2ccncc2)cc1Cl", "discrete_label": "inactive"}
{"structure_smiles": "O=C(CCc1ccc(O)cc1)N/N=C/c1cc(Br)ccc1O", "discrete_label": "inactive"}

Exercise: Could you kindly confirm the outcome this assay logged for Cc1cc(C(=O)c2ccccc2)c(C)c2c1[nH]c1ccc(Cl)cc12 ?
Key: inactive

Exercise: Outcome logged for CC1=NN(c2nc(N)nc(/C=C\c3ccc([N+](=O)[O-])s3)n2)C(C)(C)C1 in this assay:
Key: inactive

Exercise: Each compound tested received a call. Report the one for Cc1c(Cl)cccc1NC(=O)c1sc2nc3c(cc2c1N)CCCCC3 .
Key: active

* * *

Test system: OVCAR-5 ovarian
Experiment: NCI tumour cell line growth inhibition, 48 h
Can you tell me TGI for the items I'm about to list?

Completed entries (count: 5):
{"compound": "CCOC(=O)/C=C(\\C(=O)OCC)n1ccc(=O)[nH]c1=O", "TGI": "34.8 µM"}
{"compound": "O=C(O)C(=O)/C=C(\\O)c1ccc(Br)cc1", "TGI": "> 100 µM"}
{"compound": "CCCCNC(=O)/N=C/c1c(O)c2ccccc2oc1=O", "TGI": "> 100 µM"}
{"compound": "N#CC1C=Cc2c(ccc3ccccc23)N1C(=O)c1ccccc1 (stereo not given)", "TGI": "> 100 µM"}
{"compound": "Oc1ccc(Cl)cc1C1=NC(/N=C\\c2ccccc2)=NC(c2ccccc2)C1 (stereo not given)", "TGI": "> 100 µM"}

Please give TGI for each item listed below.
1. CCN(CC)CCNC(=O)c1cccc2nc3ccccc3nc12
2. CS(=O)(=O)N(c1cc(-c2ccc3ncnc(Nc4cccc(Cl)c4)c3c2)cnc1Cl)S(C)(=O)=O
3. CC(=O)[O-].O=C([CH-]C(=O)c1ccccc1)c1ccccc1.O=C([CH-]C(=O)c1ccccc1)c1ccccc1.[Sm+3]
4. Brc1cc2c(cc1Br)CN(c1ccccc1)C2
5. COc1cc(CS(=O)c2ccc(O)cc2)cc(OC)c1OC (stereo not given)

Key:
41.6 µM
6.55 µM
63.1 µM
> 100 µM
> 100 µM

Answer for every listed entry: what is its TGI? The entries follow.
1. Cn1cc(C2=C(N3CCOCC3)C(=O)NC2=O)c2ccccc21
2. CC[C@H](C)C(=O)O[C@H]1C[C@H](O)C=C2C=C[C@H](C)[C@H](CC[C@@H](O)C[C@@H](O)CC(=O)O)[C@H]21
3. C=CC1=C(C)C2=NC1=CC1=NC(=C(CC)/C1=C\O)C=C1N=C3C(=C1C)C(=O)[C@H](C(=O)OC)C3=C1NC(=C2)[C@@H](C)[C@@H]1CCC(=O)O
4. S=c1[nH]c2ccc(I)cc2c(=S)n1Cc1ccccc1

Key:
> 25 µM
> 100 µM
> 100 µM
43.9 µM

Look at each compound and report its TGI.
1. CC(C)=CC(=O)Cc1nc2ccc([N+](=O)[O-])cc2[nH]c1=O
2. O=C(NC(=S)Nc1cc(Cl)ccc1O)c1cccc(Br)c1
3. O=c1oc2c(C(F)(F)F)cccc2cc1-c1csc(Nc2ccc(OCCF)cc2)n1
4. Cc1ccc(N=C2C(=Nc3ccc(C)cc3)N(c3ccc(C)cc3)C(=S)N2C(=O)c2ccccc2)cc1
5. NC(=S)NN=C1CSSC1

Key:
["> 100 µM", "> 100 µM", "> 100 µM", "> 100 µM", "40.9 µM"]

Exercise: TGI of CC(=O)N/C(=C\c1ccc(Cc2nc3c([nH]2)C(=O)c2ccccc2C3=O)cc1)c1nc2c([nH]1)C(=O)c1ccccc1C2=O on OVCAR-5 ovarian?
Key: > 100 µM

The measured values listed here are drawn from PubChem BioAssay (NCI).
